# target.entity: human chemokine receptor 2 isoform B (Homo sapiens)
# Construct: host or cells: CHOK1-CCR2B-A5 (CHO-K1)
# test.name: Calcium mobilization assay (FLIPR, CHOK1-CCR2B-A5 cells, 20 nM MCP-1)
# Type: cell-based
# condition.notes: Ca mobilisation assay, CCR2, antagonist activity vs 20 nM MCP-1
I'd appreciate it if you could supply pIC50 values for the items below.
The quantity pIC50 is defined as the negative base-10 logarithm of the molar concentration.

What pIC50 appears in the records for this compound with human chemokine receptor 2 isoform B (Homo sapiens)? COCC1CCN(CCCN2CCN(C(=O)/C=C/c3ccc(Cl)c(Cl)c3)CCC2=O)CC1 6.21

Which pIC50 is reported with human chemokine receptor 2 isoform B (Homo sapiens) for this entry: CC1CCCCC1NCCN1CCN(C(=O)C=Cc2ccc(Cl)c(Cl)c2)CCC1=O (mixture of isomers) ? 6.22

Could you share what pIC50 was measured for CC(C)N1CCN(CC(O)CN2CCN(C(=O)/C=C/c3ccc(Cl)c(Cl)c3)CCC2=O)CC1 (racemic) , tested on human chemokine receptor 2 isoform B (Homo sapiens)? 6.53

Query the reported pIC50 for human chemokine receptor 2 isoform B (Homo sapiens); item: CN(CCCN1CCN(C(=O)/C=C/c2ccc(Cl)c(Cl)c2)CCC1=O)C1CCOCC1 6.35

For human chemokine receptor 2 isoform B (Homo sapiens), provide pIC50 of O=C(/C=C/c1ccc(Cl)c(Cl)c1)N1CCC(=O)N(CCCCN2CC[C@H](O)[C@H](O)C2)CC1 (racemic) please. 6.25

* * *

# target.entity: human chemokine receptor 2 isoform B (Homo sapiens, UniProt P41597)
# Sequence (P41597 1-360 isoform P41597-2): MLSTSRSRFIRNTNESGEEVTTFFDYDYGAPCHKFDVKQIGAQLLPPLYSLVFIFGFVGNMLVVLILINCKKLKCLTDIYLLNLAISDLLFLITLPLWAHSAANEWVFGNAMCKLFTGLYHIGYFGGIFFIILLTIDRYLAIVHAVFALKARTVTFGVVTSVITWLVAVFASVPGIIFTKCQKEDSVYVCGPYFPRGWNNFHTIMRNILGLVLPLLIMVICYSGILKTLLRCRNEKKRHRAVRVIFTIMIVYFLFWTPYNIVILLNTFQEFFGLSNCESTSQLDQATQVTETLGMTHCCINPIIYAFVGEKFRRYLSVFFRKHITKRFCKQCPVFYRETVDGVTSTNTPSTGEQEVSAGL
# test.name: Calcium mobilization assay (FLIPR, CHOK1-CCR2B-A5 cells, 20 nM MCP-1)
# condition.notes: Ca mobilisation assay, CCR2, antagonist activity vs 20 nM MCP-1
Consider the following molecules; for each one, report its pIC50.
pIC50 is a log-scale quantity: -log10 of the concentration expressed in molar.

pIC50 lookup needed for COCC1CCCN(CCCCN2CCN(C(=O)/C=C/c3ccc(Cl)c(Cl)c3)CCC2=O)C1 (stereo not shown) [Example 423] , thanks. 7.80

# pIC50 lookup, item O=C(/C=C/c1ccc(Cl)c(Cl)c1)N1CCC(=O)N(CCCCN2CC[C@@H](O)[C@@H](F)C2)CC1 (racemic) 6.45

Item under review: O=C(/C=C/c1ccc(Cl)c(Cl)c1)N1CCC(=O)N(C[C@@H](O)CN2CC[C@@H](CO)[C@H](O)C2)CC1 (mixture of isomers) . Reported pIC50? 6.52

// returns reported pIC50 for input O=C(/C=C/c1ccc(Cl)c(Cl)c1)N1CCC(=O)N(CC(O)CN2CC[C@H](O)[C@H](F)C2)CC1 (relative stereo) 6.07

* * *

# target.entity: human chemokine receptor 2 isoform B (Homo sapiens)
# test.name: Calcium mobilization assay (FLIPR, CHOK1-CCR2B-A5 cells, 20 nM MCP-1)
# condition.notes: Ca mobilisation assay, CCR2, antagonist activity vs 20 nM MCP-1
quantity.measured: IC50 (nM)
Just the number please, in nM, no unit attached.

Record request: IC50 value, item CC1CCC(O)CN1CCCCN1CCN(C(=O)/C=C/c2ccc(Cl)c(Cl)c2)CCC1=O (racemic) [Example 487] 14

Please give the measured IC50 for this molecule: O=C(/C=C/c1ccc(Cl)c(Cl)c1)N1CCC(=O)N(CCCN2CCC3(CC3)C(O)C2)CC1 (racemic) [Example 251] 8

Which IC50 is listed for COCC1CCCN(CCCCN2CCN(C(=O)/C=C/c3ccc(F)c(Cl)c3)CCC2=O)C1 (racemic) [Example 392] ? 54

Requested read-out: IC50. Entry: O=C(/C=C/c1ccc(Cl)c(Cl)c1)N1CCC(=O)N(CCNC2CCCC2)CC1 [Example 108] 1200

* * *

# target.entity: human chemokine receptor 2 isoform B (Homo sapiens, UniProt P41597)
# test.name: Calcium mobilization assay (FLIPR, CHOK1-CCR2B-A5 cells, 20 nM MCP-1)
# condition.notes: Ca mobilisation assay, CCR2, antagonist activity vs 20 nM MCP-1
What IC50 was measured for each of the following?
Your reply should be a number followed by the unit it is expressed in.

Given the entry O=C(/C=C/c1ccc(Cl)c(Cl)c1)N1CCC(=O)N(CCCCN2CCC3(CC3)C(O)C2)CC1 (racemic) , report its measured IC50. 16 nM

// lookup IC50 for N#CC1CCN(CCCN2CCN(C(=O)/C=C/c3ccc(F)c(Cl)c3)CCC2=O)CC1 1340 nM

What measured IC50 goes with CC1(C)CN(CCCCN2CCN(C(=O)/C=C/c3ccc(Cl)c(Cl)c3)CCC2=O)CCC1O (racemic) ? 226 nM

Would you kindly share the measured IC50 for CC1CCN(CCCN2CCN(C(=O)C=Cc3ccc(Cl)c(Cl)c3)CCC2=O)CC1O (single isomer, unassigned) [Example 259] ? 57 nM

I would be grateful if you could share the reported IC50 for CC1C(O)CCCN1CCCN1CCN(C(=O)C=Cc2ccc(Cl)c(Cl)c2)CCC1=O (mixture of isomers) . 243 nM

Any idea what IC50 was measured for O=C(/C=C/c1ccc(F)c(Cl)c1)N1CCC(=O)N(CCCCN2CC[C@H](F)[C@@H](O)C2)CC1 (relative stereo) ? 323 nM

Data request, read-out IC50, for O=C(C=Cc1ccc(Cl)c(Cl)c1)N1CCC(=O)N(CCCCN2CCC(F)C(O)C2)CC1 (mixture of isomers) 86 nM

* * *

# target.entity: human chemokine receptor 2 isoform B (Homo sapiens)
# test.name: Calcium mobilization assay (FLIPR, CHOK1-CCR2B-A5 cells, 20 nM MCP-1)
# condition.notes: Ca mobilisation assay, CCR2, antagonist activity vs 20 nM MCP-1
quantity.measured: pIC50
Scale: pIC50 equals -log10([C]), with [C] in mol/L.

Could you tell me which pIC50 is on file for O=C(/C=C/c1ccc(Cl)c(Cl)c1)N1CCC(=O)N(CCCNC2CCCC2)CC1 [Example 36] ? 6.14

Which value of pIC50 has been reported for CCN(CCO)CCCCN1CCN(C(=O)/C=C/c2ccc(Cl)c(Cl)c2)CCC1=O [Example 461] in the records? 6.21

pIC50 for COC1CCCN(CCCCN2CCN(C(=O)/C=C/c3ccc(F)c(Cl)c3)CCC2=O)C1 (racemic) [Example 395] ? 6.00

Record request: pIC50 value, item CC1CCN(CCCN2CCN(C(=O)C=Cc3ccc(Cl)c(Cl)c3)CCC2=O)CC1O (single isomer, unassigned) [Example 260] 8.05

Any idea what its pIC50 is? The molecule is CC1(C)CCN(CCCN2CCN(C(=O)/C=C/c3ccc(F)c(Cl)c3)CCC2=O)CC1O (racemic) [Example 223] 7.89

Any idea what its pIC50 is? The molecule is COCC1(C)CCCN(CC(O)CN2CCN(C(=O)/C=C/c3ccc(Cl)c(Cl)c3)CCC2=O)C1 (racemic) [Example 306] 6.41

So what's the measured pIC50 for this one? CC1(CO)CCN(CC(O)CN2CCN(C(=O)C=Cc3ccc(Cl)c(Cl)c3)CCC2=O)CC1O (single isomer, unassigned) [Example 330] 8.22

# pIC50 lookup, item COCC1CCN(CC(O)CCN2CCN(C(=O)/C=C/c3ccc(Cl)c(Cl)c3)CCC2=O)CC1 (racemic) [Example 360] 6.75

Look at this molecule and give its reported pIC50. CC1CCN(CCCN2CCN(C(=O)/C=C/c3ccc(F)c(Cl)c3)CCC2=O)CC1O (single isomer, unassigned) [Example 191] 7.60

Tell me the measured pIC50 of O=C(/C=C/c1ccc(Cl)c(Cl)c1)N1CCC(=O)N(CCCNC2CC3CCC2C3)CC1 (racemic) [Example 38] , please. 6.92

Reference source: patent US7632829B2
